Target: T1, human CD127 (IL-7Rα) expressed on cells (CD127-transfected CHO cells); PBMC / CD4+ T cells in functional … (human, UniProt P16871 21-459)
T1 chain: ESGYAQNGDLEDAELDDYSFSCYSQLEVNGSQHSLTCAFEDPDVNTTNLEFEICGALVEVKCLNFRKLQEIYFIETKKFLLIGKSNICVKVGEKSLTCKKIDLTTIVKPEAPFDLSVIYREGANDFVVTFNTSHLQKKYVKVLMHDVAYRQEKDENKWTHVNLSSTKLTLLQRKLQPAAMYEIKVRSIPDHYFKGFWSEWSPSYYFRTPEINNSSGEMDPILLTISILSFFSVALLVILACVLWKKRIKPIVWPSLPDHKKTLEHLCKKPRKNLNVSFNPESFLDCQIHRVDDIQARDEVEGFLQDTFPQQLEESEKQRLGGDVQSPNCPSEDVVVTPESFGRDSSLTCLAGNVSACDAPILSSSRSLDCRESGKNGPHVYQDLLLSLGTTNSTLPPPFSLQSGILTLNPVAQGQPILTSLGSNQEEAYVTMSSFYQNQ
Assay: cell-based or functional assay
OUTCOME MEASURE: IC50 of inhibition of pSTAT5 signalling (µg/ml)

BINDER	QUANTITATIVE RESULT
mAb 1A11 (murine anti-human CD127 monoclonal antibody) (antibody, mouse IgG1, V domains shown, also called antibody 1A11) VH: EVQLQQSGPELLKPGASMKISCKASGYSFTGYTMNWVKQSHGKNLEWIGLINPYNGVTSYNQKFKGKATLTVAKSSSTAYMELLSLTSEDSAVYYCARGDGNYWYFDVWGAGTTVTVSS VL: EIVLTQSPAITAASLGQKVTITCSASSSVTYMHWYQQKSGTSPKPWIYEISKLASGVPVRFSGSGSGTSYSLTISSMEAEDAAIYYCQEWNYPYTFGGGTKLEIK	0.088
